This section presents compounds with their documented log10 of IC50 values.
# Tested Target: BChE (Homo sapiens)
# Sequence (P06276 29-602): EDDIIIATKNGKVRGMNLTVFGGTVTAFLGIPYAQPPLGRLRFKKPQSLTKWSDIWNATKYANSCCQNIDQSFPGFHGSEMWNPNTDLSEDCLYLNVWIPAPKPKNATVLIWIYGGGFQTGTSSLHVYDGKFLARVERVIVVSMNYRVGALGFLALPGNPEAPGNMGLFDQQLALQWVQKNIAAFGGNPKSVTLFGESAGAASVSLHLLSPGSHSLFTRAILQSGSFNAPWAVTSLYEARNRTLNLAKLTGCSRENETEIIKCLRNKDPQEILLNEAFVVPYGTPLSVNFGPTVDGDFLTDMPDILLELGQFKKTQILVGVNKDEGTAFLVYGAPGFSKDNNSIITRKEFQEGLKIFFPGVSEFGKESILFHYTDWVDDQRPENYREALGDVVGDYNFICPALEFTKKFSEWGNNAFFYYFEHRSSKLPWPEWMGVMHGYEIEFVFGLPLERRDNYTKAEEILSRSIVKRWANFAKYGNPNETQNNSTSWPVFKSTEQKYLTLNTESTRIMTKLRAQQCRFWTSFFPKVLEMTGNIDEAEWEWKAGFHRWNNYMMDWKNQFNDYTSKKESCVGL
# Protocol: biochemical
The base-10 logarithm of IC50, taken with IC50 in µM, is what appears here.

- Compound: "COc1cc(/C=C/C(=O)c2cc3ccccc3oc2=O)ccc1OCCN1CCCC1 [Compound 12l]"
  Reported Value: -0.34
- Compound: "CN(C)C(=O)COc1cccc(/C=C/C(=O)c2cc3ccccc3oc2=O)c1 [Compound 10d]"
  Reported Value: 1.64
- Compound: "COc1cc(/C=C/C(=O)c2cc3ccccc3oc2=O)ccc1OCCN(C)C [Compound 12k]"
  Reported Value: 0.93

Data request: Recall the reported log10 of IC50 of `CCN(CC)CCOc1ccc(/C=C/C(=O)c2cc3ccccc3oc2=O)cc1` on BChE (Homo sapiens) and write it down.
Data returned: 0.79

Data request: Provide log10 of IC50, recorded with BChE (Homo sapiens), of `CCN(CC)CCOc1cccc(/C=C/C(=O)c2cc3ccccc3oc2=O)c1`
Data returned: 0.05

Data request: Specify log10 of IC50 for COc1cc(/C=C/C(=O)c2cc3ccccc3oc2=O)ccc1OCCN1CCCCC1 [Compound 12m] , system BChE (Homo sapiens).
Data returned: -0.28

Data request: Consider the compound `O=C(/C=C/c1cccc(OCCN2CCCCC2)c1)c1cc2ccccc2oc1=O` tested on BChE (Homo sapiens); state its log10 of IC50.
Data returned: 0.60

Data request: Provide log10 of IC50, tested on BChE (Homo sapiens), for `O=C(/C=C/c1ccccc1OCCN1CCOCC1)c1cc2ccccc2oc1=O` .
Data returned: 1.46

Data request: Give the observed log10 of IC50 of O=C(/C=C/c1cccc(OCC(=O)N2CCCCC2)c1)c1cc2ccccc2oc1=O [Compound 10f] for BChE (Homo sapiens).
Data returned: 2.35

----------
# Tested Target: UniProt P22303
# Sequence (P22303 32-614): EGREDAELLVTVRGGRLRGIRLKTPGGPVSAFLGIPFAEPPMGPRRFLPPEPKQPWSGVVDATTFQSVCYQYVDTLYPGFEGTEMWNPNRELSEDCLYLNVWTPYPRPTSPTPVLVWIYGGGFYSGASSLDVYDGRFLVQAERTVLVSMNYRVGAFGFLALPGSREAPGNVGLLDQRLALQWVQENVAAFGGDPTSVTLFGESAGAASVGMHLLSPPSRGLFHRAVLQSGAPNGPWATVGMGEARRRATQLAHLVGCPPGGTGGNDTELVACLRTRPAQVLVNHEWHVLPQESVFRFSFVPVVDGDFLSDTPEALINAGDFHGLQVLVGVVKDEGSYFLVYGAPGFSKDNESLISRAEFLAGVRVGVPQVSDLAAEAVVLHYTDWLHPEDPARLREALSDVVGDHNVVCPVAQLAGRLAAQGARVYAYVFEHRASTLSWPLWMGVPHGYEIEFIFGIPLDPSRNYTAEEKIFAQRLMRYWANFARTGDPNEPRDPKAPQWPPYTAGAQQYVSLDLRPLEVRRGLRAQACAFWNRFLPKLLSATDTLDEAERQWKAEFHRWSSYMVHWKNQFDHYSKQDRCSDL
# Protocol: biochemical
# Condition Label: IC50 (BChE)/IC50 (AChE)
Assay Endpoint: Selectivity for AChE

Worked examples follow.
- Compound: "CC(C)=CCOc1ccccc1/C=C/C(=O)c1cc2ccccc2oc1=O"
  Reported Value: "<0.20"
- Compound: "CN(C)C(=O)COc1cccc(/C=C/C(=O)c2cc3ccccc3oc2=O)c1 [Compound 10d]"
  Reported Value: "<0.09"

Data request: Output Selectivity for AChE of `CN(C)C(=O)COc1ccc(/C=C/C(=O)c2cc3ccccc3oc2=O)cc1`
Data returned: >26.86

----------
# Tested Target: BChE (Homo sapiens)
# Protocol: biochemical
pIC50: −log10 of the molar value.
Recorded pIC50, one value per entry.

Reference set, count: 3
- Molecule: "O=C(/C=C/c1ccc(OCCN2CCOCC2)cc1)c1cc2ccccc2oc1=O"
  Tested Target: "BChE (Homo sapiens)"
  Assay Endpoint: "pIC50"
  Reported Value: "< 3.30"
- Molecule: "O=C(/C=C/c1ccc(OCC(=O)N2CCCC2)cc1)c1cc2ccccc2oc1=O"
  Tested Target: "BChE (Homo sapiens)"
  Assay Endpoint: "pIC50"
  Reported Value: "< 3.30"
- Molecule: "O=C(/C=C/c1ccccc1OCC(=O)N1CCCC1)c1cc2ccccc2oc1=O [Compound 11e]"
  Tested Target: "BChE (Homo sapiens)"
  Assay Endpoint: "pIC50"
  Reported Value: "< 3.30"

Data request: Please list pIC50 recorded for the molecule `O=C(/C=C/c1ccc(OCC(=O)N2CCCCC2)cc1)c1cc2ccccc2oc1=O`
Data returned: < 3.30

Data request: # return recorded pIC50 for entry `CC(C)CCOc1ccccc1/C=C/C(=O)c1cc2ccccc2oc1=O`
Data returned: < 3.30

Data request: Name the recorded pIC50 of the item `CN(C)C(=O)COc1ccc(/C=C/C(=O)c2cc3ccccc3oc2=O)cc1` in your answer.
Data returned: < 3.30

Data request: State its pIC50 for this molecule: O=C(/C=C/c1cccc(OCC(=O)N2CCCC2)c1)c1cc2ccccc2oc1=O [Compound 10e]
Data returned: < 3.30
